Test system: SARS-CoV-2
Test: microbe, parasite or virus in culture
Assay type: cell-based
Settings: Severe acute respiratory syndrome coronavirus 2, Vero C1008; Vero E6 ACE2 cells, 100 TCID50 SARS-CoV-2, 68 h after infection; read-out: CPE Inhibition Assay EC50
measure name: pEC50
Quick note: pEC50 means taking -log10 of the concentration in moles per liter.

Incoming: Param item = COc1cc(-c2cn[nH]c2)ccc1N(Cc1cccc(Cl)c1)C(=O)Cn1nnc2ccccc21 [Compound 38] ; retrieve measured pEC50.
Outgoing: 5.64

====

Molecular target: SARS-CoV-2 3CLpro (Severe acute respiratory syndrome coronavirus 2 (2019-nCoV) (SARS-CoV-2))
Test: biochemical
Format: biochemical
Details: read-out: SARS-CoV-2 IC50
measure name: pIC50
Bear in mind: pIC50 is minus log10 of a mol/L concentration; give just that figure.

Illustrative cases are given below, each with its answer.
1. O=C(Cn1nnc2ccccc21)N(Cc1cccc(Cl)c1)c1ccc(-c2cccnc2)cc1 [Compound 28]
6.41
2. O=C(Cn1nnc2ccccc21)N(Cc1cccc(Cl)c1F)c1ccc(-c2c[nH]cn2)cc1 [Compound 84]
6.64
3. COc1ccc(Cl)cc1CN(C(=O)Cn1nnc2ccccc21)c1ccc(-c2c[nH]cn2)cc1 [Compound 86]
6.74

Incoming: Quick one: pIC50 for O=C(Cn1nnc2ccccc21)N(CC1CCOC1)c1ccc(-c2cccnc2)cc1 (stereo not shown) [Compound 26] ?
Outgoing: 4.64

Incoming: Please answer likewise for COC(=O)Cc1ccc(N(Cc2cc(F)cc(F)c2)C(=O)Cn2nnc3ccccc32)cc1 [Compound 92]
Outgoing: 5.74

Incoming: Also, O=C(Cn1nnc2ccccc21)N(Cc1ccsc1)c1ccc(-c2ccc[nH]c2=O)cc1 [Compound 17] please.
Outgoing: 6.04

Incoming: Would you mind doing Cc1[nH]ncc1-c1ccc(N(Cc2cccc(Cl)c2)C(=O)Cn2nnc3ccccc32)cc1 [Compound 69] as well?
Outgoing: 6.42

Incoming: Try the compound O=C(Cn1nnc2ccccc21)N(Cc1cncc(C(F)(F)F)c1)c1ccc(-c2c[nH]cn2)cc1 [Compound 96]
Outgoing: 6.46

Incoming: Try the compound O=C(Cn1nnc2ccccc21)N(CC1CCCC1)c1ccc(-c2ccc[nH]c2=O)cc1 [Compound 68]
Outgoing: 5.89

Incoming: Also need CC(C)(C)CN(C(=O)Cn1nnc2ccccc21)c1ccc(-c2c[nH]cn2)cc1 [Compound 114] , thanks.
Outgoing: 5.80
